- Test system: HIV-1 (H9IIIB strain)
- testDetails: Cell-Based HIV Infection Assay Using a Reporter (MT4-GFP cells)
- settings: Human immunodeficiency virus 1, inflection point (IP) of viral growth inhibition; MT4-GFP cells infected with HIV-1 H9IIIB; 50% normal human serum; mean of at least two independent experiments; read-out: Cell Based IP (50% NHS)
pEC50: −log10 of the molar value.
Give TRUE when the value for pEC50 is at least 7. Give FALSE when it is less.

Incoming: Please check the record N[C@H](C(=O)Nc1cccc(F)c1CCC1CNC2CCCS(=O)(=O)N1C2)[C@H](c1ccc(F)cc1)C1CC(F)(F)C1 (some centres unmarked) and state if its pEC50 is at or above 7.
Outgoing: FALSE

Incoming: Please check the record COC(=O)N[C@H](C(=O)N[C@H]1CCC[C@@H]1CC[C@H]1CN[C@@H]2CCCS(=O)(=O)N1C2)[C@@H](c1ccc(F)cc1)c1cc(F)cc(F)c1 and state if its pEC50 is at or above 7.
Outgoing: TRUE

Incoming: Please check the record COc1ccc([C@H](c2ccc(Cl)cc2)[C@H](N)C(=O)N[C@H]2CCCC[C@@H]2CC[C@H]2CN[C@@H]3CCCS(=O)(=O)N2C3)cn1 and state if its pEC50 is at or above 7.
Outgoing: FALSE

Incoming: Please check the record COC(=O)N[C@H](C(=O)Nc1cccc(F)c1CC[C@H]1CN[C@@H]2CCCS(=O)(=O)N1C2)[C@@H](c1ccc(Cl)cc1)[C@H]1CC[C@H](OC2CC2)CC1 and state if its pEC50 is at or above 7.
Outgoing: TRUE

Incoming: Please check the record COC(=O)N[C@H](C(=O)Nc1cccc(F)c1CC[C@H]1CN[C@@H]2CCCS(=O)(=O)N1C2)[C@@H](c1ccc(F)cc1)[C@H]1C[C@@H](OC)C1 and state if its pEC50 is at or above 7.
Outgoing: TRUE

Incoming: Please check the record COC(=O)N[C@H](C(=O)Nc1cccc(F)c1CCC1CNC2CCCS(=O)(=O)N1C2)[C@@H](c1ccc(Cl)cc1)C1CCC(F)(F)CC1 (some centres unmarked) and state if its pEC50 is at or above 7.
Outgoing: TRUE

Incoming: Please check the record CC(C)Oc1cc([C@H](c2ccc(Cl)cc2)[C@H](N)C(=O)Nc2cccc(F)c2CCC2CNC3CCCS(=O)(=O)N2C3)ccn1 (some centres unmarked) and state if its pEC50 is at or above 7.
Outgoing: TRUE

Incoming: Please check the record COC(=O)N[C@H](C(=O)Nc1cncc(F)c1CC[C@H]1CN[C@@H]2CCCS(=O)(=O)N1C2)[C@@H](c1ccc(Cl)cc1)[C@H]1CC[C@H](C(F)(F)F)CC1 and state if its pEC50 is at or above 7.
Outgoing: TRUE

Incoming: Please check the record N[C@H](C(=O)Nc1cccc(F)c1CCC1CNC2CCCS(=O)(=O)N1C2)[C@@H](c1ccc(Cl)cc1)C1CCOCC1 (some centres unmarked) and state if its pEC50 is at or above 7.
Outgoing: TRUE

Incoming: Please check the record N[C@H](C(=O)Nc1cncc(F)c1CC[C@H]1CN[C@@H]2CCCS(=O)(=O)N1C2)[C@@H](c1ccc(Cl)cc1)C1CCOCC1 and state if its pEC50 is at or above 7.
Outgoing: TRUE

Incoming: Please check the record COC(=O)N[C@H](C(=O)Nc1cccc(F)c1CC[C@H]1CNC2CCCS(=O)(=O)N1C2)C1(c2ccc(F)cc2)CCC(F)(F)CC1 (some centres unmarked) and state if its pEC50 is at or above 7.
Outgoing: TRUE

Incoming: Please check the record N[C@H](C(=O)Nc1cncc(F)c1CC[C@H]1CN[C@@H]2CCCS(=O)(=O)N1C2)[C@H](c1cncc(F)c1)c1ccc(Cl)c(F)c1 and state if its pEC50 is at or above 7.
Outgoing: TRUE

Incoming: Please check the record COC(=O)N[C@H](C(=O)Nc1cccc(F)c1CCC1CNC2CCCS(=O)(=O)N1C2)[C@@H](c1ccc(F)cc1)c1cc(F)cc(F)c1 (some centres unmarked) and state if its pEC50 is at or above 7.
Outgoing: TRUE

Incoming: Please check the record N[C@H](C(=O)Nc1cccc(F)c1CC[C@H]1CN[C@@H]2CCCS(=O)(=O)N1C2)C1(c2ccc(Cl)cc2)CCNCC1 and state if its pEC50 is at or above 7.
Outgoing: FALSE

Incoming: Please check the record COC(=O)N[C@H](C(=O)Nc1cccc(F)c1CC[C@H]1CN[C@@H]2CCCS(=O)(=O)N1C2)[C@@H](c1ccc(F)cc1)[C@H]1CC[C@H](O)CC1 and state if its pEC50 is at or above 7.
Outgoing: FALSE
